- measuredOn: Nucleotide-binding oligomerization domain-containing protein 1 (Homo sapiens)
- Sequence (whole entry): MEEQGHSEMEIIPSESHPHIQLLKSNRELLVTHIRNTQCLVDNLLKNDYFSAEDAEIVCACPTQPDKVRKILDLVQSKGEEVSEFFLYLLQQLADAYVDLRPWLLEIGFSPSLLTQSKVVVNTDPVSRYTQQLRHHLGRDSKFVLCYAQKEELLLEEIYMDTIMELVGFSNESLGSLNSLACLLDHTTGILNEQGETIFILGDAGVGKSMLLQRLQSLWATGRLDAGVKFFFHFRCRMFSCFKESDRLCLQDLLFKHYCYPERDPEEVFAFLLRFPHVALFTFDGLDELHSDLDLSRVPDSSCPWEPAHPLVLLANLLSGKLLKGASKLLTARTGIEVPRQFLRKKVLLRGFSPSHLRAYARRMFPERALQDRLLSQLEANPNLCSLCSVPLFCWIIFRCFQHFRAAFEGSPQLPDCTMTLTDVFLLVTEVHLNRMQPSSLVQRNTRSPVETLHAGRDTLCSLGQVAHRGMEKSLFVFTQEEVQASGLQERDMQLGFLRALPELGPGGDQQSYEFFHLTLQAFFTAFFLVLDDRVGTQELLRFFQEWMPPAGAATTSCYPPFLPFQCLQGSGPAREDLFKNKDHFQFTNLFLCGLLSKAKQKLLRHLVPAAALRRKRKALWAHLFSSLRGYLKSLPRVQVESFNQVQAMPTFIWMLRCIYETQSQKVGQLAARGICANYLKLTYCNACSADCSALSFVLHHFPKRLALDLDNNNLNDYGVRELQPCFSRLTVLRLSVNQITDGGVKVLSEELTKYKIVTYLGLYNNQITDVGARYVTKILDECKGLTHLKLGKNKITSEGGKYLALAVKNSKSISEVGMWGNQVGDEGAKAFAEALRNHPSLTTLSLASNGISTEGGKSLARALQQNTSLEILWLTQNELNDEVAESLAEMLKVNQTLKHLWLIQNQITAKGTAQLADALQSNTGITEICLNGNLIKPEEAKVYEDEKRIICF
- test: Antagonist activity at human NOD1 expressed in HEK-blue cells assessed as inhibition of C12-iE-DAP-stimulated cell activation at 5 uM preincubated for 3 hrs followed by C12-iE-DAP addition measured after 20 hrs by SEAP reporter gene assay
- Assay type: cell-based
readout: inhibition (%)
Just the number in %, nothing appended.

Previously resolved entries follow.
[[record]]
structure = "COC(=O)CC[C@@H]1NC(=O)c2cc(Oc3cccc(N(C)C)c3)c(NC(=O)COCc3ccc(F)cc3Cl)cc2NC1=O"
uom = "%"
recordedvalue = 29.3

[[record]]
structure = "COC(=O)CC[C@H]1NC(=O)c2cc(Oc3cccc(N(C)C)c3)c(NC(=O)COCc3ccc4ccccc4c3)cc2NC1=O"
uom = "%"
recordedvalue = 77.7

[[record]]
structure = "CCCCN(CCCC)C(=O)CC[C@H]1NC(=O)c2cc(Oc3cccc(N(C)C)c3)c(NC(=O)COCc3ccccc3)cc2NC1=O"
uom = "%"
recordedvalue = 81.8

[[record]]
structure = "CCCNC(=O)CC[C@@H]1NC(=O)c2cc(Oc3cccc(N(C)C)c3)c(NC(=O)COCc3ccccc3)cc2NC1=O"
uom = "%"
recordedvalue = 46.1

[[record]]
structure = "COC(=O)CC[C@H]1NC(=O)c2cc(Oc3cccc(N(C)C)c3)c(NC(=O)COCc3ccsc3)cc2NC1=O"
uom = "%"
recordedvalue = 48.1

[[record]]
structure = "COC(=O)CC[C@H]1NC(=O)c2cc(Oc3cccc(N(C)C)c3)c(NC(=O)COCc3cccc(Br)c3)cc2NC1=O"
uom = "%"
recordedvalue = 82.9


Nucleotide-binding oligomerization domain-containing protein 1 (Homo sapiens) data for COC(=O)CC[C@@H]1NC(=O)c2cc(Oc3cccc(N(C)C)c3)c(NC(=O)COCc3ccc(C(F)(F)F)cc3)cc2NC1=O ; its inhibition: 89.6

Nucleotide-binding oligomerization domain-containing protein 1 (Homo sapiens) data for CCCCCCCCCCCCCCCCNC(=O)CC[C@H]1NC(=O)c2cc(Oc3cccc(N(C)C)c3)c(NC(=O)COCc3ccccc3)cc2NC1=O ; its inhibition: 10.6

Nucleotide-binding oligomerization domain-containing protein 1 (Homo sapiens) data for COC(=O)CC[C@H]1NC(=O)c2cc(Oc3cccc(N(C)C)c3)c(NC(=O)COCc3ccc(F)cc3Cl)cc2NC1=O ; its inhibition: 20.1

----------
- measuredOn: Nucleotide-binding oligomerization domain-containing protein 2 (Homo sapiens)
- test: Antagonist activity at human NOD2 expressed in HEK-Blue cells assessed as inhibition of MDP-stimulated cell activation preincubated for 3 hrs followed by MDP addition measured after 20 hrs by SEAP reporter gene assay
Collected pIC50 values appear next to each entry.
Please treat pIC50 as minus the base-10 logarithm of the molar concentration.

[[record]]
structure = "COC(=O)CC[C@H]1NC(=O)c2cc(Oc3cccc(N(C)C)c3)c(NC(=O)COCc3ccc(F)cc3)cc2NC1=O"
recordedvalue = 5.51

[[record]]
structure = "COC(=O)CC[C@H]1NC(=O)c2cc(Oc3cccc(N(C)C)c3)c(NC(=O)COCc3ccc4ccccc4c3)cc2NC1=O"
recordedvalue = 5.80

[[record]]
structure = "COC(=O)CC[C@H]1NC(=O)c2cc(Oc3cc(Cl)cc(N(C)C)c3)c(NC(=O)COCc3ccccc3)cc2NC1=O"
recordedvalue = 5.30

[[record]]
structure = "COC(=O)CC[C@H]1NC(=O)c2cc(Oc3cccc(N(C)C)c3)c(NC(=O)COCc3ccc(C(C)(C)C)cc3)cc2NC1=O"
recordedvalue = 5.62

[[record]]
structure = "COC(=O)CC[C@H]1NC(=O)c2cc(Oc3cc(Cl)c(Cl)c(N(C)C)c3Cl)c(NC(=O)COCc3ccccc3)cc2NC1=O"
recordedvalue = 5.42


The reported value for CCCCNC(=O)CC[C@H]1NC(=O)c2cc(Oc3cccc(N(C)C)c3)c(NC(=O)COCc3ccccc3)cc2NC1=O in terms of pIC50 is 5.54

The reported value for CN(C)c1cccc(Oc2cc3c(cc2NC(=O)COCc2ccc(C(F)(F)F)cc2)NC(=O)[C@@H](CCC(=O)N2CCC(F)CC2)NC3=O)c1 in terms of pIC50 is 6.38

The reported value for COC(=O)CC[C@H]1NC(=O)c2cc(Oc3ccc(Cl)c(N(C)C)c3)c(NC(=O)COCc3ccccc3)cc2NC1=O in terms of pIC50 is 5.45

The reported value for COC(=O)CC[C@H]1NC(=O)c2cc(Oc3cccc(N(C)C)c3)c(NC(=O)COCc3cccc(Cl)c3)cc2NC1=O in terms of pIC50 is 5.68

The reported value for COC(=O)CC[C@H]1NC(=O)c2cc(Oc3cccc(N(C)C)c3)c(NC(=O)COCc3ccc(OC)cc3)cc2NC1=O in terms of pIC50 is 5.02

The reported value for CCCNC(=O)CC[C@H]1NC(=O)c2cc(Oc3cccc(N(C)C)c3)c(NC(=O)COCc3ccccc3)cc2NC1=O in terms of pIC50 is 5.38

The reported value for COC(=O)CC[C@H]1NC(=O)c2cc(Oc3cccc(N(C)C)c3)c(NC(=O)COCc3ccc(C#N)cc3)cc2NC1=O in terms of pIC50 is 5.60

The reported value for COC(=O)CC[C@H]1NC(=O)c2cc(Oc3cccc(N(C)C)c3)c(NC(=O)COCc3ccc(F)c(F)c3)cc2NC1=O in terms of pIC50 is 5.77

The reported value for C[C@@H]1NC(=O)c2cc(Oc3cccc(N(C)C)c3)c(NC(=O)COCc3ccc(C(F)(F)F)cc3)cc2NC1=O in terms of pIC50 is 6.03

The reported value for COC(=O)CC[C@H]1NC(=O)c2cc(Oc3cccc(N(C)C)c3)c(NC(=O)COCc3cccc(Br)c3)cc2NC1=O in terms of pIC50 is 5.64

The reported value for CCN(CC)C(=O)CC[C@H]1NC(=O)c2cc(Oc3cccc(N(C)C)c3)c(NC(=O)COCc3ccccc3)cc2NC1=O in terms of pIC50 is 5.47

----------
Collected inhibition values appear next to each entry.
- measuredOn: Nucleotide-binding oligomerization domain-containing protein 2 (Homo sapiens, UniProt Q9HC29)
- Sequence (Q9HC29 whole entry, the tested form may be a part): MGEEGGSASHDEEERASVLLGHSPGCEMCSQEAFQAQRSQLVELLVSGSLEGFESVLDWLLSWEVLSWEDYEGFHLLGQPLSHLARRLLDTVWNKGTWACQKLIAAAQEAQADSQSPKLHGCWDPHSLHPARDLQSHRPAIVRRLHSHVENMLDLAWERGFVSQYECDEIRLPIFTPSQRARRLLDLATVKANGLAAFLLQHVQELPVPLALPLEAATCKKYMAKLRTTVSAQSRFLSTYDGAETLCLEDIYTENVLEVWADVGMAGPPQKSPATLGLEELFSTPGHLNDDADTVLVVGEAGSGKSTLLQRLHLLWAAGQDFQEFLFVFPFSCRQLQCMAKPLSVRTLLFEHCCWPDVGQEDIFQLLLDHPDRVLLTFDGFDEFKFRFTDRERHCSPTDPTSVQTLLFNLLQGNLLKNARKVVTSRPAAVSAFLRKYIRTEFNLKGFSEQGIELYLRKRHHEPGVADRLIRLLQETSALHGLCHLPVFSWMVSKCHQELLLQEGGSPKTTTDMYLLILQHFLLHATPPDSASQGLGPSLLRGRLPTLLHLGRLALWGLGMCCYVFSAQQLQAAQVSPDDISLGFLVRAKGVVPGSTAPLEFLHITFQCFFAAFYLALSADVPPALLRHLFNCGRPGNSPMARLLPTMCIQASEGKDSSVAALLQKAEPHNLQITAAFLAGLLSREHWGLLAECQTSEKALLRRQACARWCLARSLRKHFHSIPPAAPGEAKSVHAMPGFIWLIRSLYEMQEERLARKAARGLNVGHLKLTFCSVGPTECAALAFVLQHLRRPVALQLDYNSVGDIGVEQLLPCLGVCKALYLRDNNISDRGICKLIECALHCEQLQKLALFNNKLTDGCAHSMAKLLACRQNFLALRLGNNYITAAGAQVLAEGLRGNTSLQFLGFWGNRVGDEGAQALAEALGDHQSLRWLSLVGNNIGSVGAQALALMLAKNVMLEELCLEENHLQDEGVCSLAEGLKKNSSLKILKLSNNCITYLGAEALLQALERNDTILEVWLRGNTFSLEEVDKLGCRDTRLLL
- test: Antagonist activity at human NOD2 expressed in HEK-Blue cells assessed as inhibition of MDP-stimulated cell activation at 10 uM preincubated for 3 hrs followed by MDP addition measured after 20 hrs by SEAP reporter gene assay
- Type: cell-based
Just the number in %, nothing appended.

Previously resolved entries follow.
[[record]]
compound = "CCN(CC)C(=O)CC[C@@H]1C(=O)Nc2cc(Cl)ccc2C(=O)N1C"
recordedvalue = -7.53

[[record]]
compound = "COC(=O)CC[C@H]1NC(=O)c2cc(Oc3cccc4ccccc34)c(NC(=O)C3CC3)cc2NC1=O"
recordedvalue = -0.3

[[record]]
compound = "CN(C)c1cccc(Oc2cc3c(cc2NC(=O)COCc2ccccc2)NC(=O)[C@@H](CCC(=O)NC(C)(C)C)NC3=O)c1"
recordedvalue = 92.1

[[record]]
compound = "COC(=O)CC[C@H]1NC(=O)c2cc(Oc3cccc(N(C)C)c3)c(NC(=O)COCc3cccc(F)c3)cc2NC1=O"
recordedvalue = 82.9


The reported value for CCCCN(CCCC)c1cc2c(cc1NC(=O)/C=C/c1ccc(F)cc1Cl)NC(=O)[C@@H](CCC(=O)OC)NC2=O in terms of inhibition is 60.8

The reported value for CCCCCCCCCN1C(=O)[C@@H](CCC(=O)OC)N(C)C(=O)c2ccc(Cl)cc21 in terms of inhibition is 34.1

The reported value for COC(=O)CC[C@H]1NC(=O)c2cc(Oc3cccc(N(C)C)c3)c(NC(=O)COCc3cccc(Cl)c3)cc2NC1=O in terms of inhibition is 84.1

The reported value for CCCCCCCCCCN1C(=O)C(CCC(=O)OC)NC(=O)c2cc(Cl)ccc21 (stereo unspecified) in terms of inhibition is -2.7

The reported value for NC(=O)CC[C@H]1NC(=O)c2cc(Oc3cccc4ccccc34)c(NC(=O)/C=C\c3ccc(F)cc3Cl)cc2NC1=O in terms of inhibition is 54.8
